Assay Info: Pro-arrhythmic activity in rat assessed as plasma concentration required to increase 98 +/- 3% ventricular effective refractory period at 10 mg/kg, iv as 10 mins infusion
Format: ADME, organism-based
Experimental Readout: concentration at 10 min (µM)

Clc1nc(NCc2ccccn2)c2c(-c3ccccc3)cccc2n1 | 26

---

Assay Info: Plasma concentration in rat VERP model at 3 mg/kg, iv as 5 mins infusion measured 10 mins post dose
Format: ADME, organism-based
Experimental Readout: concentration at 10 min

c1ccc(-c2cccc3nc(-c4cncnc4)nc(NCc4ccccn4)c23)cc1 | 3.1 µM

---

Assay Info: Volume of distribution at steady state in Sprague-Dawley rat hemodynamic/VERP model at 2 mg/kg, iv
Format: ADME, organism-based
Experimental Conditions: in vivo, read-out: Vdss
Experimental Readout: Vd (L/kg)

c1ccc(-c2cccc3nc(-c4cncnc4)nc(NCc4ccccn4)c23)cc1 | 5.2
Clc1nc(NCc2ccccn2)c2c(-c3ccccc3)cccc2n1 | 2.3

---

Assay Info: Oral bioavailability in Sprague-Dawley rat hemodynamic/VERP model at 5 mg/kg
Format: ADME, organism-based
Experimental Conditions: in vivo
Here the recorded bioavailability is given for each entry.
Experimental Readout: bioavailability

c1ccc(-c2cccc3nc(-c4cncnc4)nc(NCc4ccccn4)c23)cc1 | 6.3%
Clc1nc(NCc2ccccn2)c2c(-c3ccccc3)cccc2n1 | 10%

---

Target: Potassium voltage-gated channel subfamily A member 5 (Homo sapiens)
Assay Info: Inhibition of human Kv1.5 transfected in mouse LTK cells
pIC50: −log10 of the molar value.
Decision: pIC50 >= 7 yields Satisfied, all other cases yield Not satisfied.

c1ccc(-c2cccc3nc(C4CC4)nc(NCc4ccccn4)c23)cc1 | Not satisfied
N#Cc1nc(NCc2ccccn2)c2c(-c3ccccc3)cccc2n1 | Satisfied
c1ccc(-c2cccc3nc(-c4cncs4)nc(NCc4ccccn4)c23)cc1 | Satisfied
c1ccc(-c2cccc3nc(-c4ccncc4)nc(NCc4ccccn4)c23)cc1 | Satisfied
Fc1ccc(-c2cccc3nc(-c4cncnc4)nc(NCc4ccccn4)c23)cc1 | Not satisfied
c1ccc(-c2cccc3nc(-c4cccnc4)nc(NCc4ccccn4)c23)cc1 | Satisfied

---

Target: hERG (KCNH2) (Homo sapiens)
Sequence (Q12809 whole entry): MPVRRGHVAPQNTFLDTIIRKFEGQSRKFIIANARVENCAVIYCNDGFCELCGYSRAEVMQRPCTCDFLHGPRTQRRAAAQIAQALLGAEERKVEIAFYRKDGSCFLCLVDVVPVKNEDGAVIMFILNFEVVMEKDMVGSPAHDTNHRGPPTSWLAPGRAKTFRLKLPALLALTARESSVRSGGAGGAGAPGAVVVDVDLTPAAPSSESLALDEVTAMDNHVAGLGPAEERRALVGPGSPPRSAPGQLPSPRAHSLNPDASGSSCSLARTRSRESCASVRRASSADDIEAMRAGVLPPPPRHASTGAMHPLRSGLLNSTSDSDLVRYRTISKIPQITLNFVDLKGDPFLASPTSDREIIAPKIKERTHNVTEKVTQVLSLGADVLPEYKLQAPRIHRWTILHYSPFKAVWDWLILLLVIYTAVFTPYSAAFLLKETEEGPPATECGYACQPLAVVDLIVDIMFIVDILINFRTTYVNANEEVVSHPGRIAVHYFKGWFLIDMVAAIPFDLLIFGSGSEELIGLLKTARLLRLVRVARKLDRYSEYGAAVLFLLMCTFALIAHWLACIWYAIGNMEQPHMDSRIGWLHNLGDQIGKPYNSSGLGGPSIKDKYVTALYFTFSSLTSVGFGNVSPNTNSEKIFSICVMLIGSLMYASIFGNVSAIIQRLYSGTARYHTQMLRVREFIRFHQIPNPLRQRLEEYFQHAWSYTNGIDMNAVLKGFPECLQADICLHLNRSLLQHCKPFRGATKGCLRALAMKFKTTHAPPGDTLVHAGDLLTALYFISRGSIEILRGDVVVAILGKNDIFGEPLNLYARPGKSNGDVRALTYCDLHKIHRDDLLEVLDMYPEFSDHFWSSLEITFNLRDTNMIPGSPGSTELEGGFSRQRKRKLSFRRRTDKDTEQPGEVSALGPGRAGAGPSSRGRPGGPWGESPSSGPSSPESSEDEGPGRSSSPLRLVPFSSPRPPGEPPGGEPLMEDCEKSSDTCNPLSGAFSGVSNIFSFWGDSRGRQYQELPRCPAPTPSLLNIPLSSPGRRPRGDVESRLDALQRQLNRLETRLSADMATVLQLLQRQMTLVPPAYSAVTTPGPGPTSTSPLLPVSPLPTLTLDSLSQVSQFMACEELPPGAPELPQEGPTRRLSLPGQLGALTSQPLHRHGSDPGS
Assay Info: Inhibition of human ERG expressed in HEK293 cells at 0.3 uM by thallium flux assay
Type: cell-based
Experimental Conditions: HEK293 cells that express hERG
Experimental Readout: inhibition at 0.3 µM (%)

O=c1ccc(-c2nc(NCc3ccccn3)c3c(-c4ccccc4)cccc3n2)c[nH]1 | 91

---

Entries and their measured inhibition follow.
Target: Potassium voltage-gated channel subfamily A member 5 (Homo sapiens)
Assay Info: Inhibition of human Kv1.5 transfected in mouse LTK cells at 0.3 uM
Format: cell-based
Experimental Readout: inhibition (%)

Clc1nc(NCc2ccccn2)c2cccc(-c3ccccc3)c2n1 | 9
CN(C)c1nc(NCc2ccccn2)c2c(-c3ccccc3)cccc2n1 | 59
Fc1cccc(-c2cccc3nc(-c4cncnc4)nc(NCc4ccccn4)c23)c1 | 37
COCCNc1ncc(-c2nc(NCc3ccccn3)c3c(-c4ccccc4)cccc3n2)cn1 | 20
Cc1n[nH]c(C)c1-c1nc(NCc2ccccn2)c2c(-c3ccccc3)cccc2n1 | 20
Cc1nc(NCc2ccccn2)c2c(-c3ccccc3)cccc2n1 | 72
NC(=O)c1ccc(-c2cccc3nc(-c4cncnc4)nc(NCc4ccccn4)c23)cc1 | 8
Clc1nc(NCc2ccccn2)c2c(-c3ccccc3)cccc2n1 | 86
NC(=O)c1nc(NCc2ccccn2)c2c(-c3ccccc3)cccc2n1 | 9
Clc1nc(NCc2ccccn2)c2cc(-c3ccccc3)ccc2n1 | 14
Cn1cncc1-c1nc(NCc2ccccn2)c2c(-c3ccccc3)cccc2n1 | 41
Clc1nc(NCc2ccccn2)c2ccc(-c3ccccc3)cc2n1 | 9

---

Assay Info: Half life in Sprague-Dawley rat hemodynamic/VERP model at 2 mg/kg, iv
Type: ADME, organism-based
Experimental Conditions: in vivo
Measured half-life accompanies every entry in the list below.
Experimental Readout: half-life (h)

c1ccc(-c2cccc3nc(-c4cncnc4)nc(NCc4ccccn4)c23)cc1 | 15
Clc1nc(NCc2ccccn2)c2c(-c3ccccc3)cccc2n1 | 7.3

---

Assay Info: Drug uptake in brain of rat VERP model at 10 mg/kg, iv as 5 mins infusion measured 10 mins post dose
Type: ADME, organism-based
Experimental Conditions: read-out: Drug uptake
Experimental Readout: concentration at 10 min (µM)

c1ccc(-c2cccc3nc(-c4cncnc4)nc(NCc4ccccn4)c23)cc1 | 25

---

Assay Info: Drug uptake in brain of rat VERP model at 3 mg/kg, iv as 5 mins infusion measured 10 mins post dose
Assay type: ADME, organism-based
Experimental Conditions: read-out: Drug uptake
Experimental Readout: concentration at 10 min (µM)

c1ccc(-c2cccc3nc(-c4cncnc4)nc(NCc4ccccn4)c23)cc1 | 8.8

---

Target: Voltage-gated inwardly rectifying potassium channel KCNH2 (Homo sapiens)
Sequence (Q12809 whole entry): as above
Assay Info: Inhibition of human ERG expressed in HEK293 cells by thallium flux assay
Type: cell-based
pIC50: −log10 of the molar value.
Experimental Readout: pIC50

c1ccc(-c2cccc3nc(-c4cncs4)nc(NCc4ccccn4)c23)cc1 | 5.21
Cc1noc(C)c1-c1nc(NCc2ccccn2)c2c(-c3ccccc3)cccc2n1 | 5.51
CN(C)c1nc(NCc2ccccn2)c2c(-c3ccccc3)cccc2n1 | 5.60
FC(F)(F)c1nc(NCc2ccccn2)c2c(-c3ccccc3)cccc2n1 | 5.00
c1ccc(-c2cccc3nc(-c4ccncc4)nc(NCc4ccccn4)c23)cc1 | 5.17
Cn1cncc1-c1nc(NCc2ccccn2)c2c(-c3ccccc3)cccc2n1 | 5.57
Cc1nc(NCc2ccccn2)c2c(-c3ccccc3)cccc2n1 | 5.34

---

Assay Info: Metabolic stability in mouse liver microsomes assessed as parent compound remaining at 10 mins
Format: ADME, Microsome
Experimental Conditions: read-out: Stability
Recorded remaining at 10 min, one value per entry.
Experimental Readout: remaining at 10 min (%)

c1ccc(-c2cccc3nc(-c4cncnc4)nc(NCc4ccccn4)c23)cc1 | 75
c1ccc(-c2cccc3nc(-c4cccnc4)nc(NCc4ccccn4)c23)cc1 | 22

---

Target: hERG (KCNH2) (Homo sapiens)
Assay Info: Inhibition of human ERG expressed in HEK293 cells at 10 uM by thallium flux assay
Format: cell-based
Experimental Conditions: HEK293 cells that express hERG
Experimental Readout: inhibition at 10 µM (%)

c1ccc(-c2cccc3nc(-c4cncnc4)nc(NCc4ccccn4)c23)cc1 | 43

---

Target: Potassium voltage-gated channel subfamily A member 5 (Homo sapiens)
Assay Info: Inhibition of human Kv1.5 transfected in mouse LTK cells
Experimental Readout: IC50 (nM)

Clc1nc(NCc2ccccn2)c2c(-c3ccccc3)cccc2n1 | 70
c1ccc(-c2cccc3nc(-c4cncnc4)nc(NCc4ccccn4)c23)cc1 | 90
FC(F)(F)c1ccc(-c2cccc3nc(-c4cncnc4)nc(NCc4ccccn4)c23)cc1 | 150
Cc1noc(C)c1-c1nc(NCc2ccccn2)c2c(-c3ccccc3)cccc2n1 | 90
COc1ncc(-c2nc(NCc3ccccn3)c3c(-c4ccccc4)cccc3n2)cn1 | 100
c1ccc(-c2cccc3nc(-c4cn[nH]c4)nc(NCc4ccccn4)c23)cc1 | 160
FC(F)(F)c1nc(NCc2ccccn2)c2c(-c3ccccc3)cccc2n1 | 80
O=c1ccc(-c2nc(NCc3ccccn3)c3c(-c4ccccc4)cccc3n2)c[nH]1 | 110
COc1cncc(-c2nc(NCc3ccccn3)c3c(-c4ccccc4)cccc3n2)c1 | 120
N#Cc1ccc(-c2nc(NCc3ccccn3)c3c(-c4ccccc4)cccc3n2)cn1 | 130

Hello, the source for this data is ChEMBL document CHEMBL4428127, in case you need it.
